tested on: Phospho-p70S6K (T389); test: MSD assay, phospho-p70S6K (T389) in cell lysates; type: cell-based; details: PC3 cell line; read-out: MSD p70S6K
pIC50: −log10 of the molar value.
ENDPOINT: pIC50

Consider the following illustrative entries.
{"COMPOUND": "COC1CCC(N2C(=O)CNc3ncc(-c4cc(F)c(-c5ncn[nH]5)cc4C)nc32)CC1 (centres unmarked)", "TESTED_ON": "Phospho-p70S6K (T389)", "pIC50": 7.28}
{"COMPOUND": "Cc1cc(-c2nc[nH]n2)c(F)cc1-c1cnc2c(n1)N(C(C)C)C(=O)CN2", "TESTED_ON": "Phospho-p70S6K (T389)", "pIC50": 7.68}
{"COMPOUND": "O=C1CNc2ncc(-c3ccnc(O)c3)nc2N1CCC1CCOCC1", "TESTED_ON": "Phospho-p70S6K (T389)", "pIC50": 6.32}
{"COMPOUND": "COCCN1CC(=O)Nc2ncc(-c3cc(F)c(-c4nc[nH]n4)cc3C)nc21", "TESTED_ON": "Phospho-p70S6K (T389)", "pIC50": 6.93}

[I] COC1CCC(N2C(=O)CNc3ncc(-c4cnc(-c5ncn[nH]5)cc4C)nc32)CC1 (centres unmarked)
[II] CO[C@H]1CC[C@@H](N2CC(=O)Nc3ncc(-c4ccc(-c5nc[nH]n5)c(F)c4C)nc32)CC1
Short answer wanted: higher pIC50, I or II ? Let me know the label of the one you choose.
I

###

system: GSK-3β; test: MSD assay, GSK-3β phosphorylation in cell lysates; type: cell-based; conditions: PC3 cell line; read-out: MSD GSK-3β
# IC50 per entry

{"COMPOUND": "COC1CCC(N2CC(=O)Nc3ncc(-c4cc(F)c(-c5ncn[nH]5)cc4C)nc32)CC1 (stereo not drawn)", "TESTED_ON": "GSK-3β", "ENDPOINT": "IC50", "RESULT": "> 500 nM"}
{"COMPOUND": "CCn1c(=O)[nH]c2ncc(-c3ccc(-c4ncn[nH]4)c(F)c3C)nc21", "TESTED_ON": "GSK-3β", "ENDPOINT": "IC50", "RESULT": "> 5000 nM"}
{"COMPOUND": "Cc1cc(-c2nc[nH]n2)c(F)cc1-c1cnc2c(n1)N(CC1CCC(O)CC1)C(=O)CN2 (stereo not drawn) [C-142]", "TESTED_ON": "GSK-3β", "ENDPOINT": "IC50", "RESULT": "> 500 nM"}
{"COMPOUND": "Cc1cc(-c2nc[nH]n2)c(F)cc1-c1cnc2c(n1)N(CC1CCC(O)CC1)CC(=O)N2 (stereo not drawn)", "TESTED_ON": "GSK-3β", "ENDPOINT": "IC50", "RESULT": "> 500 nM"}
{"COMPOUND": "O=C1CN(CCC2CCOCC2)c2nc(-c3c[nH]c4ncccc34)cnc2N1", "TESTED_ON": "GSK-3β", "ENDPOINT": "IC50", "RESULT": "2820 nM"}
{"COMPOUND": "O=C1CN(CC2CCC(O)CC2)c2nc(-c3ccc(-c4nc[nH]n4)nc3)cnc2N1 (stereo not drawn) [C-154]", "TESTED_ON": "GSK-3β", "ENDPOINT": "IC50", "RESULT": "> 5000 nM"}

Notebook: pull reported IC50 for GSK-3β, entry COC1CCC(CN2CC(=O)Nc3ncc(-c4cc(F)c(-c5nc[nH]n5)cc4C)nc32)CC1 (stereo not drawn)
> 500 nM

Notebook: pull reported IC50 for GSK-3β, entry COC1CCC(N2C(=O)CNc3ncc(-c4cc(F)c(-c5ncn[nH]5)cc4C)nc32)CC1 (stereo not drawn)
394 nM

Notebook: pull reported IC50 for GSK-3β, entry Cc1cc(-c2nc[nH]n2)ncc1-c1cnc2c(n1)N(CC1CCOCC1)CC(=O)N2
275 nM

###

tested on: Phospho-PRAS40(T246); assay: Luminex multiplex assay, Phospho-PRAS40(T246); type: cell-based; settings: PC3 cell line; read-out: Luminex PRAS40
pIC50: −log10 of the molar value.
ENDPOINT: pIC50

{"MOLECULE": "CO[C@H]1CC[C@H](N2CC(=O)Nc3ncc(-c4ccc(C(C)(C)O)nc4)nc32)C1 [C-24]", "pIC50": 5.44}
{"MOLECULE": "CCN1C(=O)CNc2ncc(-c3ccc(-c4nnc[nH]4)nc3C)nc21 [C-54]", "pIC50": 7.41}
{"MOLECULE": "COCCN1C(=O)CNc2ncc(-c3ccc(-c4nc[nH]n4)c(F)c3C)nc21 [C-19]", "pIC50": 7.28}
{"MOLECULE": "CCN1C(=O)CNc2ncc(-c3cnc4[nH]ccc4c3)nc21 [C-103]", "pIC50": 6.16}
{"MOLECULE": "COCCN1C(=O)CNc2ncc(-c3cnc4[nH]ccc4c3)nc21 [C-104]", "pIC50": 6.97}
{"MOLECULE": "O=C1CN(CCC2CCOCC2)c2nc(-c3ccc4cc[nH]c4c3)cnc2N1 [C-41]", "pIC50": 5.30}

[a] CO[C@H]1CC[C@H](N2C(=O)CNc3ncc(-c4ccc(-c5nnc[nH]5)nc4C)nc32)C1 [C-56]
[b] COCCN1CC(=O)Nc2ncc(-c3ccc(-c4nnc[nH]4)c(F)c3C)nc21 [C-32]
Looking at a and b , which one comes out lower in pIC50 terms? Let me know the label of the one you choose.
a
(a: 6.95, b: 7.23)

[P] O=c1[nH]c2ncc(-c3ccc(-c4nc[nH]n4)cc3)nc2n1CCC1CCOCC1 [C-2]
[Q] NC(=O)c1ccc(-c2cnc3c(n2)N(CCC2CCOCC2)C(=O)CN3)cc1 [C-63]
Looking at P and Q , which one comes out lower in pIC50 terms? Let me know the label of the one you choose.
Q
(Q: 6.07, P: 6.74)

[I] COC1CCC(CN2C(=O)CNc3ncc(-c4ccc(C(C)(C)O)nc4)nc32)CC1 (stereo not drawn) [C-42]
[II] COC1CCC(N2C(=O)CNc3ncc(-c4ccc(C(C)(C)O)nc4)nc32)CC1 (stereo not drawn) [C-15]
Looking at I and II , which one comes out lower in pIC50 terms? Let me know the label of the one you choose.
II
(II: 7.02, I: 7.36)

[1] Cc1nc(-c2nnc[nH]2)ccc1-c1cnc2c(n1)N(C1CCC(O)CC1)C(=O)CN2 (stereo not drawn) [C-72]
[2] COC1CCC(N2CC(=O)Nc3ncc(-c4ccc(-c5nnc[nH]5)nc4C)nc32)C1 (stereo not drawn) [C-53]
Looking at 1 and 2 , which one comes out lower in pIC50 terms? Let me know the label of the one you choose.
2

###

system: Phospho-p70S6K (T389); test: MSD assay, phospho-p70S6K (T389) in cell lysates; type: cell-based; conditions: PC3 cell line; read-out: MSD p70S6K
ENDPOINT: IC50 (nM)

Consider the following illustrative entries.
{"COMPOUND": "COC1CCC(CN2C(=O)CNc3ncc(-c4ccc(-c5nc[nH]n5)nc4)nc32)CC1 (stereo not shown) [C-159]", "OUTPUT_UNIT": "nM", "IC50": 6}
{"COMPOUND": "O=c1[nH]c2ncc(-c3ccc(-c4nc[nH]n4)cc3)nc2n1CCC1CCOCC1 [C-2]", "OUTPUT_UNIT": "nM", "IC50": 46}
{"COMPOUND": "Cc1cc(-c2nc[nH]n2)c(F)cc1-c1cnc2c(n1)N(C(C)C)CC(=O)N2 [C-120]", "OUTPUT_UNIT": "nM", "IC50": 12}

[P] COC1CCC(N2CC(=O)Nc3ncc(-c4ccc(-c5ncn[nH]5)nc4)nc32)CC1 (stereo not shown) [C-146]
[Q] Cc1nc(-c2nnc[nH]2)ccc1-c1cnc2c(n1)N(C(C)C)C(=O)CN2 [C-69]
[R] O=C1CNc2ncc(-c3ccnc4[nH]ccc34)nc2N1CCC1CCOCC1 [C-161]
Sort low-to-high on IC50, please. Present the labels in the sequence the task asks for.
P, Q, R

###

# IC50 per entry
test system: Phospho-PRAS40(T246); experiment: Luminex multiplex assay, Phospho-PRAS40(T246); type: cell-based; conditions: PC3 cell line; read-out: Luminex PRAS40

Fill in the blank: the reported IC50 of O=C1CNc2ncc(-c3ccc(-c4nnc[nH]4)c(F)c3)nc2N1CCC1CCOCC1 is ____.
> 50 nM

Fill in the blank: the reported IC50 of COCCN1C(=O)CNc2ncc(-c3ccc4cn[nH]c4c3)nc21 is ____.
> 1500 nM

Fill in the blank: the reported IC50 of CCN1C(=O)CNc2ncc(-c3cccc4[nH]ncc34)nc21 is ____.
> 1500 nM
